Literature-derived IC50 for Aurora kinase A (Homo sapiens, UniProt O14965) follows.

Known results for molecules:
- molecule: "Cc1c(-c2ccnc(Nc3ccc(N(C)C)cc3)n2)c(C)n2c1C(=O)NCC2"
  IC50: "< 1000 nM"
- molecule: "Cc1cc(Nc2nn(C(C)C)c(=O)c3cc(F)ccc23)n[nH]1"
  IC50: "1 to 100 nM"
- molecule: "Nc1cccc(Oc2cccc(Nc3nccc(-c4nccs4)n3)c2)c1"
  IC50: "500 to 2000 nM"

Fill blank: measured IC50 of the molecule Cc1cc(-c2nc3cc4[nH]c(=O)[nH]c4cc3[nH]2)n[nH]1 is ____.
500 to 1500 nM

Fill blank: measured IC50 of the molecule Cc1cc(Nc2nn(Cc3ccccn3)c(=O)c3ccccc23)[nH]n1 is ____.
1 to 100 nM

Fill blank: measured IC50 of the molecule CCS(=O)(=O)n1cc(CN(C)C)c2ccc(-c3nc(Nc4cc(C)[nH]n4)c4cc(C)sc4n3)cc21 is ____.
≤ 50 nM

Fill blank: measured IC50 of the molecule O=C1Nc2ccccc2/C1=C\c1ccc2c(-c3cccs3)n[nH]c2c1 is ____.
5000 to 50000 nM

Fill blank: measured IC50 of the molecule CN(C)CCNC(=O)CN1C(=O)C(C)(C)c2cc3nc(-c4n[nH]c5ccccc45)[nH]c3cc21 is ____.
1 to 100 nM

Fill blank: measured IC50 of the molecule COc1ccc(Oc2ccccc2)cc1Nc1nccc(-c2nccs2)n1 is ____.
500 to 2000 nM

Fill blank: measured IC50 of the molecule Cc1cc(Nc2nn(CC(O)c3ccccc3)c(=O)c3ccccc23)n[nH]1 (stereo not drawn) is ____.
100 to 1000 nM

Fill blank: measured IC50 of the molecule CC(C)(O)Cn1cc(Nc2ncc(Cl)c(NC3CC4CN(S(C)(=O)=O)CC4C3)n2)cn1 (stereo not drawn) is ____.
2 nM

Fill blank: measured IC50 of the molecule CCOc1cc(C)ncc1NC(=O)c1ccnc2[nH]c(-c3ccc(N4CCN(C)CC4)cc3)nc12 is ____.
105 nM

Fill blank: measured IC50 of the molecule CN(C)c1ccc(C#Cc2n[nH]c3cc(C=C4C(=O)Nc5ccccc54)ccc23)cc1 (mixture of isomers) is ____.
5000 to 50000 nM

----------
pIC50: −log10 of the molar value.
Literature-derived pIC50 for Aurora kinase A (Homo sapiens) follows.

Known results for compounds:
- structure.as.smiles: "COc1ccc(-c2cnc3[nH]c(=O)n(Cc4ccccc4)c3n2)cn1"
  result: "< 6.00"
- structure.as.smiles: "Cc1cc(-c2nc3cc4c(cc3[nH]2)C(C)(C)CC(=O)N4)n[nH]1"
  result: 6.67
- structure.as.smiles: "Cc1cc(Nc2nn(CC(F)(F)F)c(=O)c3ccccc23)n[nH]1"
  result: "7.00 to 9.00"

Return pIC50 measured with Aurora kinase A (Homo sapiens) given this compound: CC(=O)c1cccc(-c2cnc3[nH]c(=O)n(Cc4ccccc4)c3n2)c1
< 6.00

----------
pIC50: −log10 of the molar value.
Literature-derived pIC50 for Aurora kinase A (Homo sapiens, UniProt O14965) follows.

Known results for molecules:
- structure.as.smiles: "Cc1cccc(NC(=O)Nc2ccc(-c3ccc4c(-c5cc6ccccc6[nH]5)n[nH]c4c3)cc2)c1"
  result: "< 4.90"
- structure.as.smiles: "Cc1nc2cc(Nc3ncc(Cl)c(NC4CCN(c5ccc(C#N)cn5)CC4)n3)ccn2n1"
  result: 6.18
- structure.as.smiles: "CCOC(=O)c1c(C)nn(-c2ccc(Nc3nccc(-c4c(C)c5n(c4C)CCNC5=O)n3)cc2)c1C"
  result: "> 5.00"
- structure.as.smiles: "COc1cc2c(Oc3ccc(NC(=O)Nc4ccccc4)cc3)ccnc2cc1OCCC[C@@H](N)C(=O)O"
  result: "> 5.70"

Fill blank: measured pIC50 of the molecule COc1cc2c(Oc3ccc(NC(=O)c4ccccc4)cc3)ccnc2cc1OCCC[C@@H](N)C(=O)OC1CCCC1 is ____.
5.30 to 5.70

----------
Literature-derived IC50 for Aurora kinase A (Homo sapiens) follows.

- structure.as.smiles: "Cc1cc(Nc2nn(C(C)C)c(=O)c3cc(N(C)Cc4ccccn4)ccc23)n[nH]1"
  subject.of.test: "Aurora kinase A (Homo sapiens)"
  result: "1 to 100 nM"
- structure.as.smiles: "Cc1cc(Nc2nn(CC(=O)c3ccc4c(c3)OCO4)c(=O)c3ccccc23)n[nH]1"
  subject.of.test: "Aurora kinase A (Homo sapiens)"
  result: "100 to 1000 nM"
- structure.as.smiles: "Clc1cccc(Nc2nccc(-c3nccs3)n2)c1"
  subject.of.test: "Aurora kinase A (Homo sapiens)"
  result: "< 500 nM"
- structure.as.smiles: "Cc1cc(Nc2nn(-c3ccc(C(F)(F)F)cc3Cl)c(=O)c3ccccc23)n[nH]1"
  subject.of.test: "Aurora kinase A (Homo sapiens)"
  result: "100 to 1000 nM"
- structure.as.smiles: "Cc1cc(Nc2nn(CC(=O)c3ccccc3)c(=O)c3ccccc23)n[nH]1"
  subject.of.test: "Aurora kinase A (Homo sapiens)"
  result: "1 to 100 nM"
- structure.as.smiles: "COCCn1nc(Nc2cc(C)n[nH]2)c2ccccc2c1=O"
  subject.of.test: "Aurora kinase A (Homo sapiens)"
  result: "100 to 1000 nM"
- structure.as.smiles: "COc1cc2c(Oc3ccc(NC(=O)Nc4ccccc4)cc3)ccnc2cc1OCC[C@@H](N)C(=O)OC1CCCC1"
  subject.of.test: "Aurora kinase A (Homo sapiens)"
  result: "2000 to 5000 nM"
- structure.as.smiles: "Cn1cc(Nc2ncc(Cl)c(NC3CCN(c4ccc(C#N)cn4)CC3)n2)cn1"
  subject.of.test: "Aurora kinase A (Homo sapiens)"
  result: "68 nM"

We now examine a further compound.
Return IC50 measured with Aurora kinase A (Homo sapiens) given this compound: Cc1c(-c2ccnc(Nc3ccc(OCc4ccccc4)cc3)n2)c(C)n2c1C(=O)NCC2
< 10000 nM

----------
pIC50: −log10 of the molar value.
Literature-derived pIC50 for UniProt:O14965 follows.

Known results for compounds:
- structure.as.smiles: "O=C(c1ccccc1C(F)(F)F)N1CCN(Cc2cccc(Nc3ncns3)n2)CC1"
  pIC50: 7.17
- structure.as.smiles: "COc1cc(-c2cnc3[nH]c(=O)n(Cc4ccc5c(c4)OCO5)c3n2)cc(OC)c1OC"
  pIC50: "6.00 to 6.30"
- structure.as.smiles: "CNS(=O)(=O)c1ccc(Nc2nccc(-c3c(C)c4n(c3C)CCNC4=O)n2)cc1OC"
  pIC50: "> 6.00"

We now examine a further compound.
Return pIC50 measured with UniProt:O14965 given this compound: c1cncc(COc2cccc(N(Cc3cccnc3)c3nccc(-c4nccs4)n3)c2)c1
> 6.30

----------
Literature-derived IC50 for Aurora kinase A (Homo sapiens, UniProt O14965) follows.

Known results for compounds:
- compound: "Nc1ncnc2c1c(-c1cc(OCC34CCC(CC3)O4)ccc1F)cn2[C@H]1C[C@@H](N2CC[S+]([O-])CC2)C1 (relative stereo)"
  readout.label: "IC50"
  result: "> 10 µM"
- compound: "O=C1Nc2ccccc2/C1=C\\c1ccc2c(/C=C/c3ccccc3Cl)n[nH]c2c1"
  readout.label: "IC50"
  result: "< 5 µM"
- compound: "O=C(c1cccc(C(F)F)c1F)N1CCN(Cc2cccc(Nc3cc[nH]n3)n2)CC1"
  readout.label: "IC50"
  result: "0.0029 µM"
- compound: "O=C1NCc2cccc(Nc3nc(Nc4ccc(N5C[C@H]6CNC[C@H]6C5)cc4OC(F)F)ncc3C(F)(F)F)c21"
  readout.label: "IC50"
  result: "0.101 to 1 µM"
- compound: "COc1cc2c(Oc3ccc(NC(=O)c4ccccc4)cc3)ccnc2cc1OCCC[C@H](N)C(=O)O"
  readout.label: "IC50"
  result: "< 2 µM"
- compound: "O=C1NCc2cccc(Nc3nc(Nc4ccc(N5C[C@@H]6C[C@H]5CN6)cc4OC(F)F)ncc3Cl)c21"
  readout.label: "IC50"
  result: "0.101 to 1 µM"
- compound: "O=C(NCCc1cnc[nH]1)c1cc(-c2[nH]ncc2-c2cccc(Cl)c2F)c[nH]1"
  readout.label: "IC50"
  result: "5 to 10 µM"
- compound: "COc1nc(N2CCN(C)CC2)ccc1Nc1ncc(C(F)(F)F)c(Nc2cccc3c2C(=O)NC3)n1"
  readout.label: "IC50"
  result: "0.101 to 1 µM"

We now examine a further compound.
Return IC50 measured with Aurora kinase A (Homo sapiens, UniProt O14965) given this compound: Cc1cc(C)cc(Nc2nccc(-c3nccs3)n2)c1
< 0.5 µM

----------
Literature-derived IC50 for Aurora kinase A (Homo sapiens, UniProt O14965) follows.

- structure.as.smiles: "COc1cc2c(Oc3ccc(NC(=O)Nc4ccccc4)cc3)ccnc2cc1OCCC[C@H](N)C(=O)OC1CCCC1"
  result: "2000 to 5000 nM"

Return IC50 measured with Aurora kinase A (Homo sapiens, UniProt O14965) given this molecule: CC1(C)C(=O)N(CC(=O)N2CCOCC2)c2cc3[nH]c(-c4n[nH]c5ccccc45)nc3cc21
1 to 100 nM

Return IC50 measured with Aurora kinase A (Homo sapiens, UniProt O14965) given this molecule: CCc1[nH]nc(-c2nc3cc4c(cc3[nH]2)C(C)(C)C(=O)N4)c1C
10 to 500 nM

Return IC50 measured with Aurora kinase A (Homo sapiens, UniProt O14965) given this molecule: COc1cc2c(cc1Nc1ncc(C(F)(F)F)c(Nc3cccc4c3C(=O)NC4)n1)CCNCC2
101 to 1000 nM
